The measured values listed here are drawn from ChEMBL document CHEMBL1132991.

test system: Human immunodeficiency virus type 1 protease (Human immunodeficiency virus 1, UniProt Q72874)
pKi: −log10 of the molar value.
observation type: pKi

Check out these entries, answers already filled in.
molecule: CC[C@H](C)[C@@H]1NC(=O)[C@@H](C(N)C[C@@H](O)[C@@H]2Cc3ccc(cc3)OCCCCC(=O)N[C@@H](C(C)C)C(=O)N2)Cc2ccc(cc2)OCCCNC1=O (stereo partly drawn)
endpoint result: 8.52

molecule: CC[C@H](C)[C@@H]1NC(=O)[C@@H](C(N)C[C@@H](O)C(Cc2ccccc2)NC(=O)OC(C)(C)C)Cc2ccc(cc2)OCCCNC1=O (stereo partly drawn)
endpoint result: 8.40

molecule: CC[C@H](C)[C@H](NC(=O)[C@H](Cc1ccccc1)NC[C@H](O)[C@@H]1Cc2ccc(cc2)OCCCC(=O)N[C@@H](CC(N)=O)C(=O)N1)C(=O)N[C@H](C(N)=O)C(C)C
endpoint result: 7.92

molecule: CC(C)C[C@H](CC(=O)NO)C(=O)N[C@H]1Cc2cn(c3ccccc23)CCCCCCNC1=O
endpoint result: 9.00

a: N=C(N)NCCC[C@H]1NC(=O)[C@@H]2CCCN2C(=O)[C@@H](NC=O)CNC(=O)/C=C/C(Cc2ccc(O)cc2)NC(=O)[C@@H](Cc2ccccc2)NC(=O)C1=O (stereo partly drawn)
b: CC[C@@H](C)[C@H](NC(=O)[C@H](Cc1ccccc1)NC(=O)[C@H](Cc1ccccc1)NC(=O)[C@@H](NC(=O)[C@H](CC(C)C)NC(C)=O)C(C)C)C(=O)N[C@H](C(N)=O)C(C)C
Which record shows the lower pKi: the first, a , or the second, b ? Could you answer with the label of the item you picked? b
